- experimental.details: Determination of pharmacokinetic parameters following intravenous and oral administration (rats)
- Format: in vivo, male Wistar rats
- condition.summary: male, Wistar, rat, plasma, iv, intravenous administration in rats; read-out: MRT
Where a name gives a salt, the structure may show the parent alone.
quantity: MRT

Inquiry: Provide only the value of recorded MRT for Cc1nc2c(OCc3c(F)cccc3F)cc(Cl)cn2c1C(=O)NCC1(N)CCC1 [Example 155, trifluoroacetate]
Reply text: 11.2 h

Inquiry: Provide only the value of recorded MRT for Cc1nc2c(OCc3c(F)cccc3F)cccn2c1C(=O)NC(CN)c1ccc(F)cc1 (single isomer, unassigned; enantiomer b)
Reply text: 6.9 h

Inquiry: Provide only the value of recorded MRT for Cc1nc2c(OCc3c(F)cccc3F)cccn2c1C(=O)NC(CN)CCCC(F)(F)F (racemic)
Reply text: 6.7 h

Inquiry: Provide only the value of recorded MRT for Cc1cc(OCc2c(F)cccc2F)c2nc(C)c(C(=O)NCC(C)(N)CF)n2c1 (racemic) [Example 282, Formate]
Reply text: 5.7 h

Inquiry: Provide only the value of recorded MRT for Cc1cc(OCc2c(F)cccc2F)c2nc(C)c(C(=O)NCC(N)C(C)C)n2c1 (single isomer, unassigned)
Reply text: 6.1 h

Inquiry: Provide only the value of recorded MRT for Cc1cc(OCc2c(F)ccc(F)c2F)c2nc(C)c(C(=O)NCC(C)(N)CF)n2c1 (single isomer, unassigned; enantiomer a)
Reply text: 4.4 h

====

- tested.system: recombinant guanylate cyclase reporter cell line (Rattus norvegicus, UniProt P19686+P20595)
- Construct: expressed in transfected cells; host or cells: recombinant reporter cell line
- Sequence (P19686 1-690): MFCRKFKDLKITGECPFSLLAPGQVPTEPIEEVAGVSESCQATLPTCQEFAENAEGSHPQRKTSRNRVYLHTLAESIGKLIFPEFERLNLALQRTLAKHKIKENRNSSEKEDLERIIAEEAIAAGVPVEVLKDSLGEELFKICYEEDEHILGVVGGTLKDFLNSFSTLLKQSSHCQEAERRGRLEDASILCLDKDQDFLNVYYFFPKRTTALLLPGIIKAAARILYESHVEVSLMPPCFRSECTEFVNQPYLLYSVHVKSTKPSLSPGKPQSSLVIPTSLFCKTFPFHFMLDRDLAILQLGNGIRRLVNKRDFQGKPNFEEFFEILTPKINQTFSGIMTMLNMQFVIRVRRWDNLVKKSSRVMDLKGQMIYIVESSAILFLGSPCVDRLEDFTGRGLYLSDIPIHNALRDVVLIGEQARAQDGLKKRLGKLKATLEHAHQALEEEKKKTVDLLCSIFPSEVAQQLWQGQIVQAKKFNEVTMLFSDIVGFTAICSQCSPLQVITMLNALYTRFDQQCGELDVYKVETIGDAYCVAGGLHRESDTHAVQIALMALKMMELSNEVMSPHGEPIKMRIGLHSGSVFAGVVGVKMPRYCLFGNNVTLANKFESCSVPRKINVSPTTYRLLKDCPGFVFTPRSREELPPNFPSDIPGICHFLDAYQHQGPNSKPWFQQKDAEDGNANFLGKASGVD
- Sequence (P20595 1-619): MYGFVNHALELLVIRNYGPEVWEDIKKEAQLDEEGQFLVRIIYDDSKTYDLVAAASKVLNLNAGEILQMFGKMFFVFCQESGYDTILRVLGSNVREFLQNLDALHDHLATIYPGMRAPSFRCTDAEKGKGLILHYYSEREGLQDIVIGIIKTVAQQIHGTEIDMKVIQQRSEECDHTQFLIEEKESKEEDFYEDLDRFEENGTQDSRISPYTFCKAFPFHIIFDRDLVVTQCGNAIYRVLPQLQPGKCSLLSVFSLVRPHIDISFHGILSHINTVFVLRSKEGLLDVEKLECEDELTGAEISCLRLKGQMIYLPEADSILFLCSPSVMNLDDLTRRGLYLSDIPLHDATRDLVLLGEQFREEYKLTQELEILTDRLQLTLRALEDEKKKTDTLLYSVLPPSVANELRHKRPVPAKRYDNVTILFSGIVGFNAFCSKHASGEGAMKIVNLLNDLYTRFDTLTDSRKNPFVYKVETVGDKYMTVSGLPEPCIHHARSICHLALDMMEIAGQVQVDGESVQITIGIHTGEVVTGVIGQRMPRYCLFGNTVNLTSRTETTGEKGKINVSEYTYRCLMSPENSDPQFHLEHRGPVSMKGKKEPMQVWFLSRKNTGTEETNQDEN
- experimental.details: Action on recombinant guanylate cyclase reporter cell line
- Format: cell-based
- condition.summary: in some cases mean values from individual determinations
Structures can show the parent of a compound that is named as a salt.
quantity: MEC (minimal effective concentration)
Quote the value and follow it with the unit of measurement.

Would you please look over these solved cases?
[[record]]
compound = "CCCC(C)(N)CNC(=O)c1c(C)nc2c(OCc3c(F)ccc(C4CC4)c3F)cc(C)cn12 (stereo not shown)"
result = "3.00 µM"

[[record]]
compound = "Cc1cc(OCc2c(F)cccc2F)c2nc(C)c(C(=O)NCCN3CCOCC3)n2c1"
result = "0.10 µM"

[[record]]
compound = "Cc1nc2c(OCc3c(F)cccc3F)cccn2c1C(=O)NCC(C)N (racemic) [Example 34, dihydrochloride]"
result = "1.00 µM"

[[record]]
compound = "Cc1nc2c(OCc3c(F)cccc3F)cccn2c1C(=O)NC(CN)CCCC(F)(F)F (single isomer, unassigned; enantiomer b)"
result = "0.23 µM"

[[record]]
compound = "CCC(C)(N)CNC(=O)c1c(C)nc2c(OCc3c(F)cccc3F)cc(Cl)cn12 (single isomer, unassigned) [Example 194]"
result = "0.10 µM"


Inquiry: Provide only the value of recorded MEC (minimal effective concentration) for Cc1nc2c(OCc3c(F)cccc3F)cc(Cl)cn2c1C(=O)NCCN1CCN(C(C)C)CC1
Reply text: 1.00 µM

Inquiry: Provide only the value of recorded MEC (minimal effective concentration) for Cc1cc(OCc2c(F)cccc2F)c2nc(C)c(C(=O)NCC(N)COC(C)C)n2c1 (racemic)
Reply text: 0.30 µM

====

- tested.system: recombinant guanylate cyclase reporter cell line (Rattus norvegicus, UniProt P19686+P20595)
- Construct: expressed in transfected cells; host or cells: recombinant reporter cell line
- experimental.details: Action on recombinant guanylate cyclase reporter cell line
- Format: cell-based
- condition.summary: in some cases mean values from individual determinations
- Protocol: B-2. Action on Recombinant Guanylate Cyclase Reporter Cell Line The cellular action of the compounds according to the invention is determined on a recombinant guanylate cyclase reporter cell line, as described in F. Wunder et al., Anal. Biochem. 339, 104-112 (2005). Representative MEC values (MEC=minimal effective concentration) for the compounds according to the invention are shown in the following table (in some cases as mean values obtained from individual determinations): […]
Counter-ions that a name gives are not always drawn.
Is MEC (minimal effective concentration) at least 0.7 µM? Then fulfilled. If not, not fulfilled.

Solved entries:
[[record]]
compound = "Cc1cc(OCc2c(F)cccc2F)c2nc(C)c(C(=O)NC[C@@H]3CCCCN3)n2c1 [Example 172]"
group_label = "not fulfilled"

[[record]]
compound = "Cc1nc2c(OCc3c(F)cccc3F)cccn2c1C(=O)NC1CNc2ccccc21 (racemic) [Example 28]"
group_label = "not fulfilled"

[[record]]
compound = "Cc1cc(OCc2c(F)cccc2F)c2nc(C)c(C(=O)NCC(N)c3ccc4ncccc4c3)n2c1 (racemic) [Example 372]"
group_label = "fulfilled"


Inquiry: Check this compound for MEC (minimal effective concentration) at or above 0.7 µM: Cc1nc2c(OCc3c(F)cccc3F)cccn2c1C(=O)NCCNCC(F)F [Example 169]
Reply text: fulfilled

Inquiry: Check this compound for MEC (minimal effective concentration) at or above 0.7 µM: Cc1cc(OCc2c(F)cccc2F)c2nc(C)c(C(=O)NC(C)CN)n2c1 (stereo not drawn) [Example 48]
Reply text: fulfilled

Inquiry: Check this compound for MEC (minimal effective concentration) at or above 0.7 µM: Cc1nc2c(OCc3c(F)cccc3F)cc(Cl)cn2c1C(=O)NCC1(N)CCC1 [Example 155, trifluoroacetate]
Reply text: not fulfilled

Inquiry: Check this compound for MEC (minimal effective concentration) at or above 0.7 µM: Cc1nc2c(OCc3c(F)cccc3F)cccn2c1C(=O)NC(CN)CC(F)(F)F (single isomer, unassigned; enantiomer b) [Example 3]
Reply text: not fulfilled

Inquiry: Check this compound for MEC (minimal effective concentration) at or above 0.7 µM: Cc1nc2c(OCc3c(F)cccc3F)cc(Cl)cn2c1C(=O)NC(C)(C)CN [Example 24]
Reply text: not fulfilled

Inquiry: Check this compound for MEC (minimal effective concentration) at or above 0.7 µM: CCCC(C)(N)CNC(=O)c1c(C)nc2c(OCc3c(F)ccc(F)c3F)cc(C)cn12 (racemic) [Example 293]
Reply text: not fulfilled

Inquiry: Check this compound for MEC (minimal effective concentration) at or above 0.7 µM: Cc1cc(OCc2c(F)cccc2F)c2nc(C)c(C(=O)NC(CN)c3cccc(C(F)(F)F)c3)n2c1 (racemic) [Example 394]
Reply text: not fulfilled

Inquiry: Check this compound for MEC (minimal effective concentration) at or above 0.7 µM: Cc1nc2c(OCc3c(F)cccc3F)cccn2c1C(=O)NCC(C)(N)CC(C)C (single isomer, unassigned) [Example 204]
Reply text: fulfilled

Inquiry: Check this compound for MEC (minimal effective concentration) at or above 0.7 µM: Cc1cc(OCc2c(F)cccc2F)c2nc(C)c(C(=O)NC3CCC4NCCC43)n2c1 (racemic) [Example 342]
Reply text: fulfilled

Inquiry: Check this compound for MEC (minimal effective concentration) at or above 0.7 µM: Cc1nc2c(OCc3c(F)cccc3F)cccn2c1C(=O)NC1CCN(Cc2ccccc2)C1 (racemic) [Example 85]
Reply text: fulfilled

Inquiry: Check this compound for MEC (minimal effective concentration) at or above 0.7 µM: Cc1nc2c(OCc3c(F)cccc3F)cccn2c1C(=O)NC(CN)c1ccc(Cl)cc1 (single isomer, unassigned; enantiomer b) [Example 15]
Reply text: not fulfilled

Inquiry: Check this compound for MEC (minimal effective concentration) at or above 0.7 µM: Cc1cc(OCc2c(F)cccc2F)c2nc(C)c(C(=O)NCC(N)c3cccc(OCCO)c3)n2c1 (racemic) [Example 367]
Reply text: fulfilled
